// reported IC50 per item
- system-under-test: human TLR8 (Homo sapiens (Human), UniProt Q9NR97)
- Sequence (Q9NR97 27-1041): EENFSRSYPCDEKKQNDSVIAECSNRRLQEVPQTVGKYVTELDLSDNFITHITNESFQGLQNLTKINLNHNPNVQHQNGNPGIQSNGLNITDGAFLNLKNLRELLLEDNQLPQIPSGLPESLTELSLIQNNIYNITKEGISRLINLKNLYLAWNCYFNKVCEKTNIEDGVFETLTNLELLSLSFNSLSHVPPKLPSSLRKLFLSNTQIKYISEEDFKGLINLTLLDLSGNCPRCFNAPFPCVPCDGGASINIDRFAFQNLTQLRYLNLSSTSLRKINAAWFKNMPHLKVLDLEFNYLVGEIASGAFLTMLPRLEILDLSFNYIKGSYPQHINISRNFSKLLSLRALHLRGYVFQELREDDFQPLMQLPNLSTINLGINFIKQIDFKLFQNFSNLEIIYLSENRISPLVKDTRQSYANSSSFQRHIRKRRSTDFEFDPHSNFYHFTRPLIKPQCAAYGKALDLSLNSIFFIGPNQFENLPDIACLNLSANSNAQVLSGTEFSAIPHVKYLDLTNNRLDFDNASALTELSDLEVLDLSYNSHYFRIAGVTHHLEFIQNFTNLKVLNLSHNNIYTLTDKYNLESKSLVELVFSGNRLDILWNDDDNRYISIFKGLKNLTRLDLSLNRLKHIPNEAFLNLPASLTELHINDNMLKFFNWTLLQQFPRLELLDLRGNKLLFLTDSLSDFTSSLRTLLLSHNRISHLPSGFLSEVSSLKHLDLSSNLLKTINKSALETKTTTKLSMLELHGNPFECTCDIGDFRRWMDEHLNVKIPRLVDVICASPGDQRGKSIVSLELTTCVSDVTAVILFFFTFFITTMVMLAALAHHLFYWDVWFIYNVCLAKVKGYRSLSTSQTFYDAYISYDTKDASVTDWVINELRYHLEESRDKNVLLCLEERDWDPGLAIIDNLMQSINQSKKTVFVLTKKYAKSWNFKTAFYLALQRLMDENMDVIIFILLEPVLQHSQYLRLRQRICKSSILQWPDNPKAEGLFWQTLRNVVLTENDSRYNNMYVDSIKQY
- experiment-summary: TLR8 inhibition reporter assay (HEK-Blue SEAP)
- experimental-context: read-out: TLR8 IC50; HEK-Blue cells overexpressing human TLR8, R848 15.9 μM stimulation, SEAP reporter

{"columns": ["compound", "IC50 (nM)"],
 "data": [
  ["CC(C)c1c(-c2cn(C)c3ncncc23)[nH]c2ccc(N3CCN(C4CCOCC4)CC3)nc12", 0.48],
  ["COc1cc(-c2[nH]c3ccc(C4CCC(=O)CC4)nc3c2C(C)C)cn2ncnc12", 84],
  ["CC(C)c1c(-c2cn(CCS(C)(=O)=O)c3ncccc23)[nH]c2ccc(C3CCC(NCC4(S(C)(=O)=O)CC4)CC3)nc12 (stereo not shown) [Example 262]", 19],
  ["COc1cc(-c2[nH]c3ccc(C4CCC(NCC(=O)N(C)C)CC4)nc3c2C(C)C)cn2ncnc12 (stereo not shown) [Example 231]", 3]
]}

====

- system-under-test: human TLR8 (Homo sapiens (Human), UniProt Q9NR97)
- experiment-summary: TLR8 inhibition reporter assay (HEK-Blue SEAP);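 note: SEAP driven by IFN-β minimal promoter carrying NF-κB and AP-1 sites, compounds dosed 0.05 nM to 50 µM for 22 h, inhibition scaled between agonist-plus-DMSO and reference-inhibitor wells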
- experimental-context: read-out: TLR8 IC50; HEK-Blue cells overexpressing human TLR8, SEAP reporter, R848 15.9 μM
Response field label: string, one of Satisfied (IC50 strictly below 8 nM) or Not satisfied.

{"columns": ["compound", "system-under-test", "category-label"],
 "data": [
  ["Cc1c(-c2[nH]c3ccc(C4CC(N(C)CCS(C)(=O)=O)C4)nc3c2C(C)C)cn2ncnc2c1C (stereo not drawn) [Example 636]", "human TLR8 (Homo sapiens (Human), UniProt Q9NR97)", "Not satisfied"],
  ["COc1cc(-c2[nH]c3ccc(C4CN(Cc5c[nH]nn5)C4)nc3c2C(C)C)cn2ncnc12 [Example 651]", "human TLR8 (Homo sapiens (Human), UniProt Q9NR97)", "Not satisfied"],
  ["Cc1c(-c2[nH]c3ccc(C4CCN(C5CCN(C)C5=O)CC4)nc3c2C(C)C)cn2ncnc2c1C (stereo not drawn) [Example 563]", "human TLR8 (Homo sapiens (Human), UniProt Q9NR97)", "Satisfied"],
  ["COc1cc(-c2[nH]c3cc(C)c(C(=O)N4CCN(C(C)=O)CC4)nc3c2C(C)C)cn2ncnc12 [Example 733]", "human TLR8 (Homo sapiens (Human), UniProt Q9NR97)", "Not satisfied"],
  ["Cc1c(-c2[nH]c3ccc(C4CC(N(C)CCS(C)(=O)=O)C4)nc3c2C(C)C)cn2ncnc2c1C (stereo not drawn) [Example 621]", "human TLR8 (Homo sapiens (Human), UniProt Q9NR97)", "Satisfied"],
  ["CC(C)c1c(-c2ccc(=O)n(C)c2)[nH]c2ccc(C3CCNCC3)nc12 [Example 513]", "human TLR8 (Homo sapiens (Human), UniProt Q9NR97)", "Not satisfied"],
  ["COc1cc(-c2[nH]c3ccc(C4CCN(C5COC5)CC4)nc3c2C(C)C)cn2ncnc12 [Example 535]", "human TLR8 (Homo sapiens (Human), UniProt Q9NR97)", "Not satisfied"],
  ["Cc1c(-c2[nH]c3ccc(N4C[C@H]5C[C@@H](C4)N5C(=O)CN(C)C)nc3c2C(C)C)cn2ncnc2c1C [Example 754]", "human TLR8 (Homo sapiens (Human), UniProt Q9NR97)", "Satisfied"],
  ["COc1cc(-c2[nH]c3ccc(C4CCC(NCC5(C)COC5)C4)nc3c2C(C)C)cn2ncnc12 (stereo not drawn) [Example 718]", "human TLR8 (Homo sapiens (Human), UniProt Q9NR97)", "Satisfied"],
  ["COc1cc(-c2[nH]c3ccc(OCC4CN(CC(C)(C)O)C4)nc3c2C(C)C)cn2ncnc12 [Example 599]", "human TLR8 (Homo sapiens (Human), UniProt Q9NR97)", "Satisfied"],
  ["Cc1c(-c2[nH]c3ccc(C4CCC(N5CC(C#N)C5)CC4)nc3c2C(C)C)cn2ncnc2c1C (stereo not drawn) [Example 436]", "human TLR8 (Homo sapiens (Human), UniProt Q9NR97)", "Not satisfied"],
  ["Cc1c(-c2[nH]c3ccc(C4CCC(N(C)C(=O)CN(C)C)CC4)nc3c2C(C)C)cn2ncnc2c1C (stereo not drawn) [Example 396]", "human TLR8 (Homo sapiens (Human), UniProt Q9NR97)", "Not satisfied"],
  ["Cc1c(-c2[nH]c3ccc(C4CCC(NCC5(S(C)(=O)=O)CC5)CC4)nc3c2C(C)C)cn2ncnc2c1C (stereo not drawn) [Example 419]", "human TLR8 (Homo sapiens (Human), UniProt Q9NR97)", "Satisfied"],
  ["Cc1c(-c2[nH]c3ccc(N4CC5(CNC5)C4)nc3c2C(C)C)cn2ncnc2c1C [Example 740]", "human TLR8 (Homo sapiens (Human), UniProt Q9NR97)", "Satisfied"],
  ["Cc1c(-c2[nH]c3ccc(C4CCC(N(C)CC5(S(C)(=O)=O)CC5)CC4)nc3c2C(C)C)cn2ncnc2c1C (stereo not drawn) [Example 476]", "human TLR8 (Homo sapiens (Human), UniProt Q9NR97)", "Satisfied"],
  ["COc1cc(-c2[nH]c3cc(F)c(C4CCN(C(=O)CN(C)C)CC4)nc3c2C(C)C)cn2ncnc12 [Example 577]", "human TLR8 (Homo sapiens (Human), UniProt Q9NR97)", "Satisfied"],
  ["COc1cc(-c2[nH]c3ccc(C4CC(N(C)C)C4)nc3c2C(C)C)cn2ncnc12 (stereo not drawn) [Example 639]", "human TLR8 (Homo sapiens (Human), UniProt Q9NR97)", "Satisfied"],
  ["Cc1c(-c2[nH]c3ccc(C4CCC(N(CCO)CC(=O)N(C)C)CC4)nc3c2C(C)C)cn2ncnc2c1C (stereo not drawn) [Example 463]", "human TLR8 (Homo sapiens (Human), UniProt Q9NR97)", "Not satisfied"],
  ["Cc1c(-c2[nH]c3ccc(C4CCC(N(C)C5COC5)CC4)nc3c2C(C)C)cn2ncnc2c1C (stereo not drawn) [Example 401]", "human TLR8 (Homo sapiens (Human), UniProt Q9NR97)", "Satisfied"],
  ["Cc1c(-c2[nH]c3ccc(C4CCC(NCC5(C)COC5)CC4)nc3c2C(C)C)cn2ncnc2c1C (stereo not drawn) [Example 477]", "human TLR8 (Homo sapiens (Human), UniProt Q9NR97)", "Satisfied"],
  ["Cc1c(-c2[nH]c3ccc(C4CN(CC(C)(C)O)C4)nc3c2C(C)C)cn2ncnc2c1C [Example 654]", "human TLR8 (Homo sapiens (Human), UniProt Q9NR97)", "Not satisfied"],
  ["Cc1c(-c2[nH]c3ccc(CCC4CN(C(=O)CN(C)C)C4)nc3c2C(C)C)cn2ncnc2c1C [Example 685]", "human TLR8 (Homo sapiens (Human), UniProt Q9NR97)", "Not satisfied"],
  ["Cc1cc(-c2[nH]c3ccc(C4CCNCC4)nc3c2C(C)C)cn2ncnc12 [Example 516]", "human TLR8 (Homo sapiens (Human), UniProt Q9NR97)", "Satisfied"],
  ["Cc1cc2[nH]c(-c3cn4ncnc4c(C)c3C)c(C(C)C)c2nc1C1CCC(NC2COC2)CC1 (stereo not drawn) [Example 503]", "human TLR8 (Homo sapiens (Human), UniProt Q9NR97)", "Not satisfied"],
  ["Cc1c(-c2[nH]c3ccc(C4CC(NC(=O)CN(C)C)C4)nc3c2C(C)C)cn2ncnc2c1C (stereo not drawn) [Example 644]", "human TLR8 (Homo sapiens (Human), UniProt Q9NR97)", "Satisfied"],
  ["Cc1c(-c2[nH]c3ccc(C4CCC(N(CCO)CC5(S(C)(=O)=O)CC5)CC4)nc3c2C(C)C)cn2ncnc2c1C (stereo not drawn) [Example 481]", "human TLR8 (Homo sapiens (Human), UniProt Q9NR97)", "Satisfied"],
  ["COc1ccc2[nH]c(-c3cc(OC)c4ncnn4c3)c(C(C)C)c2n1 [Example 601]", "human TLR8 (Homo sapiens (Human), UniProt Q9NR97)", "Not satisfied"],
  ["Cc1c(-c2[nH]c3ccc(N4C[C@H](C)N(C(=O)CCN(C)C)[C@@H](C)C4)nc3c2C(C)C)cn2ncnc2c1C [Example 761]", "human TLR8 (Homo sapiens (Human), UniProt Q9NR97)", "Not satisfied"],
  ["CC(C)c1c(-c2cn(C)c3ncccc23)[nH]c2ccc(CCC3CN(C4COC4)C3)nc12 [Example 694]", "human TLR8 (Homo sapiens (Human), UniProt Q9NR97)", "Not satisfied"],
  ["Cc1cnc(CN(C)C2CCC(c3ccc4[nH]c(-c5cn6ncnc6c(C)c5C)c(C(C)C)c4n3)CC2)cn1 (stereo not drawn) [Example 414]", "human TLR8 (Homo sapiens (Human), UniProt Q9NR97)", "Not satisfied"]
]}

====

- system-under-test: UniProt Q9NYK1
- Sequence (Q9NYK1 27-1049): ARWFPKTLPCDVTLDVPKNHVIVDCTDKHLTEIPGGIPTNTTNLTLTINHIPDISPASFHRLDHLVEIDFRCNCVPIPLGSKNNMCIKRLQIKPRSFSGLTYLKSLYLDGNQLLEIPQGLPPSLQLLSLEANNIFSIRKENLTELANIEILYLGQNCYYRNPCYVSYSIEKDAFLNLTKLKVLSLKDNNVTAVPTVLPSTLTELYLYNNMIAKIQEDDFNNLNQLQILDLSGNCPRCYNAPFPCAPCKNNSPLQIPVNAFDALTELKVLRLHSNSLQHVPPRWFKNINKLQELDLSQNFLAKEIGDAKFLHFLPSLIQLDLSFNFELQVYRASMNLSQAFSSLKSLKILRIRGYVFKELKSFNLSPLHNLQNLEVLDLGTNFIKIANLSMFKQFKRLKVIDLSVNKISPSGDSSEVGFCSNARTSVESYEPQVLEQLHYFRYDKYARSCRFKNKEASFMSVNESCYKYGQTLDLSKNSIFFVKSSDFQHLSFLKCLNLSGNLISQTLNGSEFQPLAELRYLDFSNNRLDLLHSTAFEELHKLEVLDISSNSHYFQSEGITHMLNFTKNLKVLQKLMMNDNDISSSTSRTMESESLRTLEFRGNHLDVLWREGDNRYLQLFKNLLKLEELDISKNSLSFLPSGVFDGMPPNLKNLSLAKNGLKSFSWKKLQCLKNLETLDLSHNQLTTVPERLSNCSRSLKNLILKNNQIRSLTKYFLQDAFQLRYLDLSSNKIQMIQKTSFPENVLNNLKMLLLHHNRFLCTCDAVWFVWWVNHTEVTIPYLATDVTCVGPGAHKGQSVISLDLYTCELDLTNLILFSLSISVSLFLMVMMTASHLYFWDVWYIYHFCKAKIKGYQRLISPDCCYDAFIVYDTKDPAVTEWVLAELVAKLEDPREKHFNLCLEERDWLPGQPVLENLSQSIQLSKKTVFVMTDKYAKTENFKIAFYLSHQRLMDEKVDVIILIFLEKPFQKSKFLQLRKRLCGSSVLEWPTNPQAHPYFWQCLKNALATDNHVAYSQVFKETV
- experiment-summary: TLR7 inhibition reporter assay (HEK-Blue SEAP)
- Format: cell-based
- experimental-context: HEK-Blue cells overexpressing human TLR7, gardiquimod 7.5 μM stimulation, SEAP reporter
endpoint-name: log10(IC50) (log10 of the value in nM)

{"columns": ["compound", "system-under-test", "measured-number"],
 "data": [
  ["COc1cc(-c2[nH]c3ccc(N4CCN(CCNS(C)(=O)=O)CC4)nc3c2C(C)C)cn2ncnc12", "UniProt Q9NYK1", 0.57],
  ["COc1cc(-c2[nH]c3ccc(C4CCC(NC(C)C)CC4)nc3c2C(C)C)cn2ncnc12 (stereo not drawn) [Example 193]", "UniProt Q9NYK1", 0.18],
  ["Cc1c(-c2[nH]c3ccc(N4CC(N(C)C(=O)CN(C)C)C4)nc3c2C(C)C)cn2ncnc2c1C [Example 25]", "UniProt Q9NYK1", 2.26],
  ["CC(C)c1c(-c2cn(CCS(C)(=O)=O)c3ncccc23)[nH]c2ccc(C3CCC(NCC(=O)N(C)C)CC3)nc12 (stereo not drawn) [Example 261]", "UniProt Q9NYK1", 2.42],
  ["COCCN(C)C1CCC(c2ccc3[nH]c(-c4cn5ncnc5c(C)c4C)c(C(C)C)c3n2)CC1 (stereo not drawn) [Example 389]", "UniProt Q9NYK1", -0.35],
  ["CNC1CCC(c2ccc3[nH]c(-c4cn(CC#N)c5ncccc45)c(C(C)C)c3n2)CC1 (stereo not drawn) [Example 270]", "UniProt Q9NYK1", 1.58],
  ["COc1cc(-c2[nH]c3cc(C)c(C4CCC(N(C)Cc5ncn(C)n5)CC4)nc3c2C(C)C)cn2ncnc12 (stereo not drawn) [Example 333]", "UniProt Q9NYK1", -0.22],
  ["COc1cc(-c2[nH]c3ccc(N4CCN(CC(N)=O)CC4)nc3c2C(C)C)cn2ncnc12", "UniProt Q9NYK1", 0.63],
  ["COc1cc(-c2[nH]c3ccc(N4CC(NCC5(C)COC5)C4)nc3c2C(C)C)cn2ncnc12", "UniProt Q9NYK1", 1.85],
  ["CNC1CCC(c2ccc3[nH]c(-c4cn(CCS(C)(=O)=O)c5ncccc45)c(C(C)C)c3n2)CC1 (stereo not drawn) [Example 269]", "UniProt Q9NYK1", 2.35],
  ["COc1cc(-c2[nH]c3ccc(C4CCC(N(CC#N)C5COC5)CC4)nc3c2C(C)C)cn2ncnc12 (stereo not drawn)", "UniProt Q9NYK1", -0.40],
  ["COc1cc(-c2[nH]c3ccc(C4CCC(NCc5cnco5)CC4)nc3c2C(C)C)cn2ncnc12 (stereo not drawn) [Example 204]", "UniProt Q9NYK1", -0.01],
  ["COc1cc(-c2[nH]c3cc(C)c(C4CCC(N5CCC5)CC4)nc3c2C(C)C)cn2ncnc12 (stereo not drawn) [Example 326]", "UniProt Q9NYK1", -0.89],
  ["COc1cc(-c2[nH]c3ccc(N4CCN(C5CCS(=O)(=O)CC5)CC4)nc3c2C(C)C)cn2ncnc12", "UniProt Q9NYK1", 0.63],
  ["CC(C)c1c(-c2cn(C)c3ncccc23)[nH]c2ccc(C3CCC(NCC4(S(C)(=O)=O)CC4)CC3)nc12 (stereo not drawn) [Example 238]", "UniProt Q9NYK1", -0.15]
]}
